Biological target: Angiotensin II receptor (Rattus norvegicus) (UniProt P29089+P25095+P35351)
Assay: Inhibitory activity on AII (100 ng/kg iv)-induced pressor response after administration at 0.1 mg/kg po in conscious male Sprague-Dawley rats at 24 h.
Format: functional, organism-based
Set-up: dose 0.1 mg/kg
This listing pairs compounds with measured inhibition.
recorded.endpoint: inhibition (%)

>  <compound.structure.string>
CCOc1nc2cccc(C(=O)OCOC(=O)C3CCCCC3)c2n1Cc1ccc(-c2ccccc2-c2nn[nH]n2)cc1

>  <recorded.endpoint>
inhibition

>  <experimental.result>
14

$$$$
>  <compound.structure.string>
CCCCc1nc2cccc(C(=O)OCOC(=O)C(C)(C)C)c2n1Cc1ccc(-c2ccccc2-c2nn[nH]n2)cc1

>  <recorded.endpoint>
inhibition

>  <experimental.result>
50

$$$$
>  <compound.structure.string>
CCCCc1nc2cccc(C(=O)OCc3oc(=O)oc3C)c2n1Cc1ccc(-c2ccccc2-c2nn[nH]n2)cc1

>  <recorded.endpoint>
inhibition

>  <experimental.result>
55

$$$$
>  <compound.structure.string>
CCOc1nc2cccc(C(=O)OCOC(=O)OCC3CC3)c2n1Cc1ccc(-c2ccccc2-c2nn[nH]n2)cc1

>  <recorded.endpoint>
inhibition

>  <experimental.result>
22

$$$$
>  <compound.structure.string>
CCOc1nc2cccc(C(=O)OCOC(=O)CC)c2n1Cc1ccc(-c2ccccc2-c2nn[nH]n2)cc1

>  <recorded.endpoint>
inhibition

>  <experimental.result>
-4

$$$$
>  <compound.structure.string>
CCCC(=O)OCOC(=O)c1cccc2nc(OCC)n(Cc3ccc(-c4ccccc4-c4nn[nH]n4)cc3)c12

>  <recorded.endpoint>
inhibition

>  <experimental.result>
6

$$$$
>  <compound.structure.string>
CCCCc1nc2cccc(C(=O)OCCN(C)C)c2n1Cc1ccc(-c2ccccc2-c2nn[nH]n2)cc1

>  <recorded.endpoint>
inhibition

>  <experimental.result>
9

$$$$
>  <compound.structure.string>
CCOc1nc2cccc(C(=O)OCOC(=O)C(C)(C)C)c2n1Cc1ccc(-c2ccccc2-c2nn[nH]n2)cc1

>  <recorded.endpoint>
inhibition

>  <experimental.result>
43

$$$$

---

Biological target: Angiotensin II receptor (Rattus norvegicus) (UniProt P29089+P25095+P35351)
Assay: Inhibitory activity on AII (100 ng/kg iv)-induced pressor response after administration at 0.1 mg/kg po in conscious male Sprague-Dawley rats at 3 h.
Assay type: functional, organism-based
Set-up: dose 0.1 mg/kg

>  <compound>
CCOc1nc2cccc(C(=O)OC(C)OC(=O)OC(C)C)c2n1Cc1ccc(-c2ccccc2-c2nn[nH]n2)cc1 (configuration not stated)

>  <inhibition / %>
79

$$$$
>  <compound>
CCCCc1nc2cccc(C(=O)O)c2n1Cc1ccc(-c2ccccc2-c2nnn(C)n2)cc1

>  <inhibition / %>
9

$$$$
>  <compound>
CCCCOC(=O)c1cccc2nc(CCCC)n(Cc3ccc(-c4ccccc4-c4nn[nH]n4)cc3)c12

>  <inhibition / %>
78

$$$$
>  <compound>
CCOc1nc2cccc(C(=O)OCOC(=O)C3CCCCC3)c2n1Cc1ccc(-c2ccccc2-c2nn[nH]n2)cc1

>  <inhibition / %>
85

$$$$
>  <compound>
CCOC(=O)OC(C)OC(=O)c1cccc2nc(OCC)n(Cc3ccc(-c4ccccc4-c4nn[nH]n4)cc3)c12 (configuration not stated)

>  <inhibition / %>
89

$$$$
>  <compound>
CCCCc1nc2cccc(C(=O)OC)c2n1Cc1ccc(-c2ccccc2-c2nn[nH]n2)cc1

>  <inhibition / %>
47

$$$$
>  <compound>
CCOc1nc2cccc(C(=O)OCOC(C)=O)c2n1Cc1ccc(-c2ccccc2-c2nn[nH]n2)cc1

>  <inhibition / %>
78

$$$$

Each recorded value in this set is attributed to ChEMBL document CHEMBL1126763.
